Molecular target: Protein smoothened (Homo sapiens)
Sequence (Q99835 whole entry): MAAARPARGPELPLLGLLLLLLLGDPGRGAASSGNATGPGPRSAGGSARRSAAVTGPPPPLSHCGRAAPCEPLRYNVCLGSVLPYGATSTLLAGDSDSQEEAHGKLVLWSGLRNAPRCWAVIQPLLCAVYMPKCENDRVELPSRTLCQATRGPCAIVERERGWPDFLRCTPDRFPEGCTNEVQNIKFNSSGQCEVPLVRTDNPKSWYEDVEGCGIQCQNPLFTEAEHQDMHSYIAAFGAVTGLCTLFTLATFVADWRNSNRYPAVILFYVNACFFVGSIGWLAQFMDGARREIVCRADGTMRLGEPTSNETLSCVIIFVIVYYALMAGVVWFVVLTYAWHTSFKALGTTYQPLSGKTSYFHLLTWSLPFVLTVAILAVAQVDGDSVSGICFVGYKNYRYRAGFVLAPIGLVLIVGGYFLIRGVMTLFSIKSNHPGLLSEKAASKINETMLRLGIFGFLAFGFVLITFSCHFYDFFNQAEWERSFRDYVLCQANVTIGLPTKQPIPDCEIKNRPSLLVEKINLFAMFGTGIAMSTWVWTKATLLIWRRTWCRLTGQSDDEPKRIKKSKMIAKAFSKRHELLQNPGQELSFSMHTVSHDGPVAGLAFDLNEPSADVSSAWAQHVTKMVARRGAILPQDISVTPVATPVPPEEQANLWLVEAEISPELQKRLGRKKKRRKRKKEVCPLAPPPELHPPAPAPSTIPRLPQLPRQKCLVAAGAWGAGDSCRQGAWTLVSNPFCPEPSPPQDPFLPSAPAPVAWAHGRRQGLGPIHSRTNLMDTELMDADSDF
Assay: Inhibition of Smo receptor (unknown origin) expressed in NIH3T3 cells assessed as inhibition of Smo agonist SAG-induced GRE activation after 30 hrs by luciferase reporter gene assay
pIC50: −log10 of the molar value.
Attribute measured: pIC50

CCC(=O)Nc1cn2c(n1)CN(c1cc(-c3ncc(C)cc3C)c(Cl)cn1)CC2    6.05

A = Cc1cnc(-c2cc(N3CCn4cc(CN5CCOCC5)nc4C3)ncc2Cl)c(C)c1
B = Cc1cnc(-c2cc(N3CCn4cc(NC(=O)C(F)(F)F)nc4C3)ncc2Cl)c(C)c1
C = Cc1cnc(-c2cc(N3CCn4cc(C(=O)Nc5cccnc5)nc4C3)ncc2Cl)c(C)c1
Challenge: Rank descending by pIC50. Reply: labels, ordered per the request.
Response given: C, A, B
